system: Staphylococcus aureus; assay: Antibacterial activity against Staphylococcus aureus MTCC 1144 at 128 mg/ml after 16 hrs by disk diffusion test; type: functional; set-up: dose or concentration left out as unconfirmed; conditions: MTCC 1144, 16 h, read-out: IZ
measurementKind: zone of inhibition

> print(dat)
                                 givensmiles     measurementkind     val
 1           CSc1nc2sc3c(c2c(=S)[nH]1)CCCCC3  zone of inhibition  > 3 mm
 2  CC(=O)OC[C@H]1O[C@@H](Sc2nc3sc4c(c3c(=S)[nH]2)CCCCC4)[C@@H](OC(C)=O)[C@@H]1OC(C)=O  zone of inhibition  < 1 mm
 3        S=c1[nH]c(=S)c2c3c(sc2[nH]1)CCCCC3  zone of inhibition  > 2 mm
 4  OC[C@H]1O[C@@H](Sc2nc3sc4c(c3c(=S)[nH]2)CCCCC4)[C@H](O)[C@@H](O)[C@@H]1O  zone of inhibition  < 1 mm
 5  OC[C@H]1O[C@@H](Sc2nc3sc4c(c3c(=S)[nH]2)CCCC4)[C@@H](O)[C@@H]1O  zone of inhibition  > 2 mm
 6  CC(=O)OC[C@H]1O[C@@H](Sc2nc3sc4c(c3c(=S)[nH]2)CCCCC4)[C@H](OC(C)=O)[C@@H](OC(C)=O)[C@@H]1OC(C)=O  zone of inhibition  > 2 mm
 7  S=c1c2c3c(sc2nc2n(-c4ccccc4)nc(-c4ccccc4)n12)CCCC3  zone of inhibition  > 3 mm
 8  CC(=O)c1nn(-c2ccc([N+](=O)[O-])cc2)c2nc3sc4c(c3c(=S)n12)CCCC4  zone of inhibition  > 2 mm
 9  OC[C@H]1O[C@@H](Sc2nc3sc4c(c3c(=S)[nH]2)CCCC4)[C@H](O)[C@@H](O)[C@@H]1O  zone of inhibition  < 1 mm
10  CC(=O)OC[C@H]1O[C@@H](Sc2nc3sc4c(c3c(=S)[nH]2)CCCC4)[C@@H](OC(C)=O)[C@@H]1OC(C)=O  zone of inhibition  > 3 mm
11            CSc1nc2sc3c(c2c(=S)[nH]1)CCCC3  zone of inhibition  > 3 mm
12  CC(=O)OC[C@H]1O[C@@H](Sc2nc3sc4c(c3c(=S)[nH]2)CCCC4)[C@H](OC(C)=O)[C@@H](OC(C)=O)[C@@H]1OC(C)=O  zone of inhibition  < 1 mm
13  CCOC(=O)c1nn(-c2ccc(C)cc2)c2nc3sc4c(c3c(=S)n12)CCCC4  zone of inhibition  > 3 mm
14  OC[C@H]1O[C@@H](Sc2nc3sc4c(c3c(=S)[nH]2)CCCCC4)[C@@H](O)[C@@H]1O  zone of inhibition  > 3 mm
15         S=c1[nH]c(=S)c2c3c(sc2[nH]1)CCCC3  zone of inhibition  > 3 mm
16  CC1(C)S[C@@H]2[C@H](NC(=O)[C@H](N)c3ccccc3)C(=O)N2[C@H]1C(=O)O  zone of inhibition  > 5 mm

Numbers sourced from ChEMBL document CHEMBL1240504.
